The values you see were collected from PubChem BioAssay AID1963854.

Below: a set of entries, each annotated with reported viability, T/C.
System: 186277-243-T-J2-PDC complex spheroid viability;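 note: spheroids exposed to compounds for seven days; 100% = DMSO vehicle control viability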
Assay: Anticancer human tumor 186277-243-T-J2-PDC patient-derived colon adenocarcinoma cell line growth inhibition [POLQ]
Conditions: second compound 0.1 µM; first compound 0.1 µM; stronger effect = lower value
Report the figure in % without appending any unit label.

>  <compound>
C#Cc1c(F)ccc2cc(O)cc(-c3ncc4c(N5CC6CCC(C5)N6)nc(OCC56CCCN5CC(F)C6)nc4c3F)c12 (stereo not drawn) + Cc1cccc(N(C)C(=O)C2C(O)CCN2c2nc(C)cc(C(F)(F)F)c2C#N)c1

>  <viability, T/C / %>
53.5

$$$$

stdin: Determine its reported viability, T/C: CC1COCCN1c1cc(C2(O)CC3CCC(C2)O3)c2cnn(-c3ccn[nH]3)c2n1 (stereo not drawn) + Nc1ccc(C#CCN(C(=O)Cc2ncc(C(F)(F)F)cc2C(F)(F)F)c2ccc(F)cc2)nn1
stdout: 20.2

stdin: Determine its reported viability, T/C: CC(C)n1c(=O)n(C)c2cnc3cc(F)c(-c4ccc(OCCCN5CCCCC5)nc4)cc3c21 + Cc1cccc(N(C)C(=O)C2C(O)CCN2c2nc(C)cc(C(F)(F)F)c2C#N)c1
stdout: 93.2
